- measured_target: σ1-receptor (Cavia porcellus)
- Sequence (Q60492 whole entry): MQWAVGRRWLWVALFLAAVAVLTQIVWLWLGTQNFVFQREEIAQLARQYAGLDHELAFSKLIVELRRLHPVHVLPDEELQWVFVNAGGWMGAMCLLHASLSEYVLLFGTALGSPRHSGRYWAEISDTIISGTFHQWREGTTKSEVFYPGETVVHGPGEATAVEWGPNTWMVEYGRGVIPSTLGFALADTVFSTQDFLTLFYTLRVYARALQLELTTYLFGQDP
- measurement_notes: σ1-receptor binding assay, [3H](+)-pentazocine, brain membranes
- measurement_parameters: compound 10^−8M; [3H](+)-pentazocine 0.5 nM; guinea pig brain membranes
Structures can show the parent of a compound that is named as a salt.
attribute_measured: % Binding σ1 10^−8M
Be sure to follow the number with its unit.

What value of % Binding σ1 10^−8M has been recorded for this entry: O=C(O)C(=O)O.OC(COc1ccn(-c2ccc(Cl)c(Cl)c2)n1)CN1CCCC1 (centres unmarked)
32.6%

What value of % Binding σ1 10^−8M has been recorded for this entry: O=C(O)C(=O)O.OC(COc1ccn(-c2ccc(Cl)c(Cl)c2)n1)CN1CCCCC1 (centres unmarked)
4.2%

What value of % Binding σ1 10^−8M has been recorded for this entry: OC(COc1ccn(-c2ccc(Cl)c(Cl)c2)n1)CN1CCOCC1 (centres unmarked) [Example 1, oxalate]
22.2%

What value of % Binding σ1 10^−8M has been recorded for this entry: Clc1ccc(-n2ccc(OCCOCCN3CCOCC3)n2)cc1Cl.O=C(O)C(=O)O
25.8%

What value of % Binding σ1 10^−8M has been recorded for this entry: Clc1ccc(-n2ccc(OCCOCCN3CCCCC3)n2)cc1Cl
23.7%

---

Answer each item with its documented % Binding σ1 10^−7M.
- measured_target: UniProt:Q60492
- measurement_notes: σ1-receptor binding assay, [3H](+)-pentazocine, brain membranes
- measurement_parameters: compound 10^−7M; [3H](+)-pentazocine 0.5 nM; guinea pig brain membranes
Where a name gives a salt, the structure may show the parent alone.
Report the figure in % without appending any unit label.

Param readout = % Binding σ1 10^−7M; param system = UniProt:Q60492; param query = OC(COc1ccn(-c2ccc(Cl)c(Cl)c2)n1)CN1CCOCC1 (centres unmarked) [Example 1, oxalate] ; response: value
70.3

Param readout = % Binding σ1 10^−7M; param system = UniProt:Q60492; param query = O=C(O)C(=O)O.OC(COc1ccn(-c2ccc(Cl)c(Cl)c2)n1)CN1CCCCC1 (centres unmarked) ; response: value
72.2

Param readout = % Binding σ1 10^−7M; param system = UniProt:Q60492; param query = Clc1ccc(-n2ccc(OCCOCCN3CCCCC3)n2)cc1Cl ; response: value
82.8

Param readout = % Binding σ1 10^−7M; param system = UniProt:Q60492; param query = O=C(O)C(=O)O.OC(COc1ccn(-c2ccc(Cl)c(Cl)c2)n1)CN1CCCC1 (centres unmarked) ; response: value
55.9

Param readout = % Binding σ1 10^−7M; param system = UniProt:Q60492; param query = Clc1ccc(-n2ccc(OCCOCCN3CCOCC3)n2)cc1Cl.O=C(O)C(=O)O ; response: value
61.6

The origin of these recorded values is patent US8138186B2.
